# measured-on: CB1 cannabinoid receptor (Rattus norvegicus, UniProt P20272)
# Construct: membranes were prepared from rat forebrain membranes; from tissue; host or cells: rat forebrain
# Sequence (P20272 whole entry): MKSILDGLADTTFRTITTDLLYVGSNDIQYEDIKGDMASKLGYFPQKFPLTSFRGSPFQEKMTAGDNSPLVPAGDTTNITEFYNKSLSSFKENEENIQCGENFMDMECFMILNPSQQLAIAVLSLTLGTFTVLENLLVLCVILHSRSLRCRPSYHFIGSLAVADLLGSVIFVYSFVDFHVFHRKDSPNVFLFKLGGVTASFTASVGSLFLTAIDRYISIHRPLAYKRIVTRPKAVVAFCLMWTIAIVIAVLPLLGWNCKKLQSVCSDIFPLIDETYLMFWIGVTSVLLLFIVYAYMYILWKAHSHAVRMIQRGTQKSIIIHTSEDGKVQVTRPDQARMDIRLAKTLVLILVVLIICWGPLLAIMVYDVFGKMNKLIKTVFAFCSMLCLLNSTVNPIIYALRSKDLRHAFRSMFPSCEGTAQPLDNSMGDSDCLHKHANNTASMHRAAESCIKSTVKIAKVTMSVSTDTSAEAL
# assay-remarks: CB1 receptor binding, rat forebrain membranes, [3H] CP-55,940 displacement
# test-context: rat forebrain membranes, 0.8 nM [3H] CP-55,940; read-out: affinities Ki CB1
measured-attribute: pKi
pKi is defined as minus the log10 of a concentration measured in mol/L.

O=C(NC1CCCCC1)c1nn(-c2ccc(Cl)cc2Cl)c(-c2ccc(Br)cc2)c1CO [Compound 3-18] = 8.22
CN(C(=O)c1nn(-c2ccc(Cl)cc2Cl)c(-c2ccc(-c3nnn[nH]3)cc2)c1CO)C1CCCCC1 [Compound 2-16] = 6.53
CN(C(=O)c1nn(-c2ccc(Cl)cc2Cl)c(-c2ccc(Br)cc2)c1CO)C1CCCCC1 [Compound 3-1] = 7.54
O=C(Nc1nn(-c2ccc(Cl)cc2Cl)c(-c2ccc(Br)cc2)c1CO)NC1CCCCC1 [Compound 2-19] = 8.05
CN(C(=O)c1nn(-c2ccc(Cl)cc2Cl)c(-c2ccc(-c3cccnc3)cc2)c1CO)C1CCCCC1 [Compound 3-4] = 6.64

Prompt: GET /values?readout=pKi&system=CB1 cannabinoid receptor (Rattus norvegicus, UniProt P20272)&item= Cc1c(C(=O)NN2CCCCC2)nn(-c2ccc(Cl)cc2Cl)c1-c1ccc(-c2nnn(C)n2)cc1 [Compound 2-3]
Completion: 8.22

Prompt: Test system CB1 cannabinoid receptor (Rattus norvegicus, UniProt P20272); read-out pKi; what value for Cc1c(C=Cc2ccccc2)nn(-c2ccc(Cl)cc2Cl)c1-c1ccc(Br)cc1 [Compound 1-24] ?
Completion: 6.85

Prompt: So what pKi did O=C(NC1CCCCC1)c1nn(-c2ccc(Cl)cc2Cl)c(-c2ccc(Br)cc2)c1CBr [Compound 3-17] get with CB1 cannabinoid receptor (Rattus norvegicus, UniProt P20272)?
Completion: 7.34
